All values here come from the kinase profiling compilation of Christmann-Franck et al. (2016).

Biological target: PRKG2 (human) (UniProt Q13237)
Sequence (Q13237 whole entry, looked up): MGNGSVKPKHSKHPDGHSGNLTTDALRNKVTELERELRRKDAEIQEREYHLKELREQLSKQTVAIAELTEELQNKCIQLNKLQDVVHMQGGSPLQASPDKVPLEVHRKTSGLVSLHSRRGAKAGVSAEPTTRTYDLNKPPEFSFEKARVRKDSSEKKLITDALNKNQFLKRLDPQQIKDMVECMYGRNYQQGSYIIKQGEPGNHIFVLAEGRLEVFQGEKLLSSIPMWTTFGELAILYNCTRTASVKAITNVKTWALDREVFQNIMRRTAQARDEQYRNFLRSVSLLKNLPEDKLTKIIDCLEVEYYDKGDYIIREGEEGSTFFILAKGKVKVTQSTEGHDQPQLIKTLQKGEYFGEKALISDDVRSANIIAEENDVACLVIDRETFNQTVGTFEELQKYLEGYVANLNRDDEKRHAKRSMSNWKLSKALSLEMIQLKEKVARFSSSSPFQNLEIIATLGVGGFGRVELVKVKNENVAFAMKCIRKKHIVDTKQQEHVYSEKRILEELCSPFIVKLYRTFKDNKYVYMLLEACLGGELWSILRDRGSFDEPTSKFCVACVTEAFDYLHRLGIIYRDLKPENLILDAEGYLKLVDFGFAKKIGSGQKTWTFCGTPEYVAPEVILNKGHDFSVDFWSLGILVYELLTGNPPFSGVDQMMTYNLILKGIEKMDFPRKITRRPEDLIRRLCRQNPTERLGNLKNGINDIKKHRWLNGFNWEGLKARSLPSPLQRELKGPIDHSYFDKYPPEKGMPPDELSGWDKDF
Test: KINOMEscan competition binding
Conditions: compound 10.0 µM
experimental_endpoint: kinase still bound, per cent of control

smiles_repr: O=C1Nc2ccccc2/C1=C/c1ccc[nH]1
kinase still bound, per cent of control: no effect (inactive)

smiles_repr: Cc1cc(Nc2cc(N3CCN(C)CC3)nc(Sc3ccc(NC(=O)C4CC4)cc3)n2)[nH]n1
kinase still bound, per cent of control: no effect (inactive)

smiles_repr: Cc1ccc(NC(=O)c2cccc(N3CCCCC3)c2)cc1-c1ccc(C(=O)NCC2CC2)cc1
kinase still bound, per cent of control: no effect (inactive)

smiles_repr: NC(=O)c1ccc(Nc2cc(-c3ccc(F)cc3)[nH]n2)cc1
kinase still bound, per cent of control: no effect (inactive)

smiles_repr: Nc1ncnc2c1c(-c1cccc(O)c1)cn2C1CCNCC1
kinase still bound, per cent of control: no effect (inactive)

smiles_repr: Cc1ccc(C(=O)Nc2cccc(C(C)(C)C)c2)cc1-c1ccc(C(=O)NCC2CC2)cc1
kinase still bound, per cent of control: no effect (inactive)

Given Cc1ccc(O)cc1Nc1ccnc(Nc2cccc(C(N)=O)c2)n1 , state its recorded kinase still bound, per cent of control.
no effect (inactive)

Now try CCS(=O)(=O)Nc1ccc2c(c1)[C@H](/C(=N/c1ccc(CN3CCCCC3)cc1)c1ccccc1)C(=O)N2 .
0%

Now try NC(=O)c1ccc(-c2cc(C(N)=O)c(N)c(-c3ccc(S(N)(=O)=O)cc3)c2)cc1 .
no effect (inactive)

Now try NC(=O)Nc1sc(-c2ccc(F)cc2)cc1C(N)=O .
no effect (inactive)

Now try CN(C)c1ccc(-c2cc3ncccc3c(NCCCCN)n2)cc1 .
no effect (inactive)

Now try c1ccc(-c2n[nH]cc2-c2ccnc3ccccc23)nc1 .
no effect (inactive)

----------
Biological target: CLK2 (human) (UniProt P49760)
Sequence (P49760 whole entry, looked up): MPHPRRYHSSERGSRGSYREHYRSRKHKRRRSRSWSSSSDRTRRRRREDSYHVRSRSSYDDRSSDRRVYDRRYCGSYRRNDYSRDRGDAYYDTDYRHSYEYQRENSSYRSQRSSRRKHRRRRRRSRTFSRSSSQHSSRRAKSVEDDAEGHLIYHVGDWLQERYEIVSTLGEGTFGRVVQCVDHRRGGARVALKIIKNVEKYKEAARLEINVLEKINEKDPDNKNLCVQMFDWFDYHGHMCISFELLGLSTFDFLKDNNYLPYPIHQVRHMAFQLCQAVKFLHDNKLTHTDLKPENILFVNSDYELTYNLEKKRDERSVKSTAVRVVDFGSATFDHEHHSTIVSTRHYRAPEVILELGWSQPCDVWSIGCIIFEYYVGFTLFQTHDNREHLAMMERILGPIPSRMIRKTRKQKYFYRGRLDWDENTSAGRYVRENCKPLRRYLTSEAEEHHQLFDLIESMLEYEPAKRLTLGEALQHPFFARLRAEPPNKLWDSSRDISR
Experiment: KINOMEscan competition binding
Conditions: compound 10.0 µM
experimental_endpoint: kinase still bound, per cent of control

smiles_repr: CN(C)c1ccc(-c2cc3ncccc3c(NCCCCN)n2)cc1
reported_result: no effect (inactive)
--
smiles_repr: Cc1cc(Nc2cc(N3CCN(C)CC3)nc(Sc3ccc(NC(=O)C4CC4)cc3)n2)[nH]n1
reported_result: no effect (inactive)
--
smiles_repr: c1ccc(-c2n[nH]cc2-c2ccnc3ccccc23)nc1
reported_result: no effect (inactive)
--
smiles_repr: CCS(=O)(=O)Nc1ccc2c(c1)[C@H](/C(=N/c1ccc(CN3CCCCC3)cc1)c1ccccc1)C(=O)N2
reported_result: 0%

Proceed to the following item.
Given Cc1ccc(C(=O)Nc2cccc(C(C)(C)C)c2)cc1-c1ccc(C(=O)NCC2CC2)cc1 , state its recorded kinase still bound, per cent of control.
no effect (inactive)

----------
Molecular target: UniProtKB P28482
Sequence (P28482 whole entry, looked up): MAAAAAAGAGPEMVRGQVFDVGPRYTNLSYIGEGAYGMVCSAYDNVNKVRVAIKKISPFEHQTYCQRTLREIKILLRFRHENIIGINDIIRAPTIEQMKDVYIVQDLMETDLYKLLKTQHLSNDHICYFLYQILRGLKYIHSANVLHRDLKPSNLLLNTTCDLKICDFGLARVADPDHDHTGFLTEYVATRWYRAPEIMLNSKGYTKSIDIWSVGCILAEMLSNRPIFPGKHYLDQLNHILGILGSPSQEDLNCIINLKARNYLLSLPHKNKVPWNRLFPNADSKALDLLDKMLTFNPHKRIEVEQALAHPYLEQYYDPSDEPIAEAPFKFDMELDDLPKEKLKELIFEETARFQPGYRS
Test: KINOMEscan competition binding
Details: compound 10.0 µM
experimental_endpoint: kinase still bound, per cent of control

smiles_repr: NC(=O)Nc1sc(-c2ccc(F)cc2)cc1C(N)=O
reported_result: no effect (inactive)
--
smiles_repr: Cc1ccc(O)cc1Nc1ccnc(Nc2cccc(C(N)=O)c2)n1
reported_result: no effect (inactive)
--
smiles_repr: c1ccc(-c2n[nH]cc2-c2ccnc3ccccc23)nc1
reported_result: no effect (inactive)
--
smiles_repr: CCS(=O)(=O)Nc1ccc2c(c1)[C@H](/C(=N/c1ccc(CN3CCCCC3)cc1)c1ccccc1)C(=O)N2
reported_result: 14%
